target: human ErbB2 ECD-myc/His fusion protein (human); experiment: SPR, medium resolution Biacore 2000; mAb captured on goat anti-human IgG, ErbB2(ECD)-cMyc/His injected; 1:1 fit
Exercise: for every item that follows, state its recorded Kd.
Answers are plain numbers, in nM.

Reference set, count: 2
>  <binder>
monoclonal antibody 1.100.1 (antibody, V domains shown) VH: QLQLQESGPGLVKPSETLSLTCTVSGGFISSSSYYWGWIRQPPGKGLEWIGTIYYSGTTYYNSSLKSRVTISVDTSQNQFSLKLSSVTAADTAVYYCARHHWVFDYWGQGTLVTVSS VL: EVVLTQSPDFQSVTPKEKITITCRASQIIGTSLHWYQKKPDQSPKLLIKYASQSFSGVPSRFSGSGSGTEFTLTINSLEAEDTATYYCHQSTNLPWTFGQGTKVEIK

>  <readout_name>
Kd

>  <recorded_number>
2.9

$$$$
>  <binder>
monoclonal antibody 1.20 (antibody, V domains shown) VH: QLQLQESGPGLVKPSETLSLTCTVSGGSISSSNYYWGWIRQPPGKGLEWIGTIYYTGSTYYNPSLKSRVTISVDTSKNQFSLKLSSVTAADTAVYYCARHHWVFDYWGQGTLVTVSS VL: DIQMTQSPSSVSASVGDRVTITCRASQGISSWLAWYQQKPGKAPKLLIYAASSLQSGVPSRFSGSGSGTDFTLTISSLQPEDFATYYCQRTNSFPRTFGQGTKVEIK

>  <readout_name>
Kd

>  <recorded_number>
3.6

$$$$

We now examine a further binder.
**Query** // lookup Kd for monoclonal antibody 1.39 (antibody, V domains shown) VH: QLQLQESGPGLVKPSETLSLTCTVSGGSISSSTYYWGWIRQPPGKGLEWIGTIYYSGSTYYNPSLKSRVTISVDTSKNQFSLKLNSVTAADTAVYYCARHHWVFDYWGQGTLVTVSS VL: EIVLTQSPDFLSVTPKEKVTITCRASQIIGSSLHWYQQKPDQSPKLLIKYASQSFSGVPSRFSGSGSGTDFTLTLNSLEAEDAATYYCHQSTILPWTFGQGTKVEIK
**Result** 2
